Source: ChEMBL document CHEMBL1131432

pKi: −log10 of the molar value.
Read-out record for Mu-type opioid receptor (Rattus norvegicus, UniProt P33535): pKi
attribute-measured: pKi

{"columns": ["compound", "reported-relation", "endpoint-result"],
 "data": [
  ["NC(=O)[C@H](Cc1ccccc1)NC(=O)[C@H](Cc1ccccc1)NC(=O)C1Cc2ccccc2CN1C(=O)[C@@H](N)Cc1ccc(O)cc1 (single isomer, unassigned)", "=", 8.14],
  ["C[C@@H](c1ccccc1)[C@@H](NC(=O)[C@H](Cc1ccccc1)NC(=O)[C@@H]1Cc2ccccc2CN1C(=O)[C@@H](N)Cc1ccc(O)cc1)C(N)=O", "<", 5.00],
  ["C[C@H](c1ccccc1)C(NC(=O)[C@@H]1Cc2ccccc2CN1C(=O)[C@@H](N)Cc1ccc(O)cc1)C(=O)N[C@@H](Cc1ccccc1)C(N)=O (single isomer, unassigned)", "<", 5.00],
  ["C[C@H](c1ccc(O)cc1)[C@H](N)C(=O)N1Cc2ccccc2C[C@H]1C(=O)N[C@@H](Cc1ccccc1)C(=O)N[C@@H](Cc1ccccc1)C(N)=O", "=", 6.55],
  ["N[C@@H](Cc1ccc(O)cc1)C(=O)N1Cc2ccccc2C[C@H]1C(=O)N[C@@H](Cc1ccccc1)C(=O)N[C@@H](Cc1ccccc1)C(=O)O", "<", 5.00],
  ["C[C@@H](c1ccccc1)C(NC(=O)[C@@H]1Cc2ccccc2CN1C(=O)[C@@H](N)Cc1ccc(O)cc1)C(=O)N[C@@H](Cc1ccccc1)C(N)=O (single isomer, unassigned)", "=", 7.08]
]}

---

Notes on pKi obtained with Kappa-type opioid receptor (Cavia porcellus).
Sequence (P41144 whole entry): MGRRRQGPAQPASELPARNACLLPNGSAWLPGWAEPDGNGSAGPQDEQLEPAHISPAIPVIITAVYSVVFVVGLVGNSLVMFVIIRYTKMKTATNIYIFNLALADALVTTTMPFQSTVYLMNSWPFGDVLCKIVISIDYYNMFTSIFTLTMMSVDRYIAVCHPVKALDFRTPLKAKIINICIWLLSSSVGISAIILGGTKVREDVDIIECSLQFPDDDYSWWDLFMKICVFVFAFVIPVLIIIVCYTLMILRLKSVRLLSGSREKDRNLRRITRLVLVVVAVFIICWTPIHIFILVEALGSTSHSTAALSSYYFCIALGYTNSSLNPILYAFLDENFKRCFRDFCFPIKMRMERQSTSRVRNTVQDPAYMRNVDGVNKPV
pKi: −log10 of the molar value.

{"columns": ["molecule", "reported-relation", "pKi"],
 "data": [
  ["NC(=O)[C@H](Cc1ccccc1)NC(=O)[C@H](Cc1ccccc1)NC(=O)[C@@H]1Cc2ccccc2CN1C(=O)[C@@H](N)Cc1ccc(O)cc1", "=", 6.08],
  ["C[C@H](c1ccc(O)cc1)[C@@H](N)C(=O)N1Cc2ccccc2C[C@H]1C(=O)N[C@@H](Cc1ccccc1)C(=O)N[C@@H](Cc1ccccc1)C(N)=O", "=", 5.93],
  ["N[C@@H](Cc1ccc(O)cc1)C(=O)N1Cc2ccccc2C[C@H]1C(=O)N[C@@H](Cc1ccccc1)C(=O)N[C@@H](Cc1ccccc1)C(=O)O", "<", 5.00],
  ["CC1c2ccccc2CN(C(=O)C(N)Cc2ccc(O)cc2)[C@@H]1C(=O)N[C@@H](Cc1ccccc1)C(=O)N[C@@H](Cc1ccccc1)C(=O)O (single isomer, unassigned)", "<", 5.00],
  ["C[C@H](c1ccccc1)C(NC(=O)[C@@H]1Cc2ccccc2CN1C(=O)[C@@H](N)Cc1ccc(O)cc1)C(=O)N[C@@H](Cc1ccccc1)C(N)=O (single isomer, unassigned)", "=", 6.35],
  ["C[C@H](c1ccccc1)C(NC(=O)[C@H](Cc1ccccc1)NC(=O)[C@@H]1Cc2ccccc2CN1C(=O)[C@@H](N)Cc1ccc(O)cc1)C(N)=O (single isomer, unassigned)", "=", 6.60],
  ["C[C@H](c1ccc(O)cc1)[C@H](N)C(=O)N1Cc2ccccc2C[C@H]1C(=O)N[C@@H](Cc1ccccc1)C(=O)N[C@@H](Cc1ccccc1)C(N)=O", "<", 5.00],
  ["C[C@@H](c1ccccc1)[C@H](NC(=O)[C@H](Cc1ccccc1)NC(=O)[C@@H]1Cc2ccccc2CN1C(=O)[C@@H](N)Cc1ccc(O)cc1)C(N)=O", "=", 5.89],
  ["C[C@H](c1ccccc1)[C@H](NC(=O)[C@@H]1Cc2ccccc2CN1C(=O)[C@@H](N)Cc1ccc(O)cc1)C(=O)N[C@@H](Cc1ccccc1)C(N)=O", "=", 5.36],
  ["C[C@H](c1ccccc1)[C@@H](NC(=O)[C@H](Cc1ccccc1)NC(=O)[C@@H]1Cc2ccccc2CN1C(=O)[C@@H](N)Cc1ccc(O)cc1)C(N)=O", "=", 6.12],
  ["C[C@@H](c1ccc(O)cc1)[C@H](N)C(=O)N1Cc2ccccc2C[C@H]1C(=O)N[C@@H](Cc1ccccc1)C(=O)N[C@@H](Cc1ccccc1)C(N)=O", "<", 5.00],
  ["C[C@@H](c1ccc(O)cc1)C(N)C(=O)N1Cc2ccccc2C[C@H]1C(=O)N[C@@H](Cc1ccccc1)C(=O)N[C@@H](Cc1ccccc1)C(N)=O (single isomer, unassigned)", "=", 5.60],
  ["C[C@H]1c2ccccc2CN(C(=O)C(N)Cc2ccc(O)cc2)[C@H]1C(=O)N[C@@H](Cc1ccccc1)C(=O)N[C@@H](Cc1ccccc1)C(=O)O (single isomer, unassigned)", "<", 5.00],
  ["C[C@@H](c1ccccc1)[C@H](NC(=O)[C@@H]1Cc2ccccc2CN1C(=O)[C@@H](N)Cc1ccc(O)cc1)C(=O)N[C@@H](Cc1ccccc1)C(N)=O", "=", 5.47],
  ["C[C@@H](c1ccccc1)C(NC(=O)[C@@H]1Cc2ccccc2CN1C(=O)[C@@H](N)Cc1ccc(O)cc1)C(=O)N[C@@H](Cc1ccccc1)C(N)=O (single isomer, unassigned)", "=", 5.92],
  ["C[C@@H]1c2ccccc2CN(C(=O)[C@@H](N)Cc2ccc(O)cc2)C1C(=O)N[C@@H](Cc1ccccc1)C(=O)N[C@@H](Cc1ccccc1)C(=O)O (single isomer, unassigned; 16)", "<", 5.00],
  ["C[C@@H]1c2ccccc2CN(C(=O)[C@@H](N)Cc2ccc(O)cc2)C1C(=O)N[C@@H](Cc1ccccc1)C(=O)N[C@@H](Cc1ccccc1)C(=O)O (single isomer, unassigned; 15)", "<", 5.00],
  ["C[C@@H](c1ccccc1)[C@@H](NC(=O)[C@H](Cc1ccccc1)NC(=O)[C@@H]1Cc2ccccc2CN1C(=O)[C@@H](N)Cc1ccc(O)cc1)C(N)=O", "=", 5.55],
  ["C[C@H](c1ccccc1)[C@@H](NC(=O)[C@@H]1Cc2ccccc2CN1C(=O)[C@@H](N)Cc1ccc(O)cc1)C(=O)N[C@@H](Cc1ccccc1)C(=O)O", "<", 5.00]
]}

---

Reported Ki values are given for each entry in this list.
# subject-of-test: Mu-type opioid receptor (Rattus norvegicus, UniProt P33535)
# Sequence (P33535 whole entry): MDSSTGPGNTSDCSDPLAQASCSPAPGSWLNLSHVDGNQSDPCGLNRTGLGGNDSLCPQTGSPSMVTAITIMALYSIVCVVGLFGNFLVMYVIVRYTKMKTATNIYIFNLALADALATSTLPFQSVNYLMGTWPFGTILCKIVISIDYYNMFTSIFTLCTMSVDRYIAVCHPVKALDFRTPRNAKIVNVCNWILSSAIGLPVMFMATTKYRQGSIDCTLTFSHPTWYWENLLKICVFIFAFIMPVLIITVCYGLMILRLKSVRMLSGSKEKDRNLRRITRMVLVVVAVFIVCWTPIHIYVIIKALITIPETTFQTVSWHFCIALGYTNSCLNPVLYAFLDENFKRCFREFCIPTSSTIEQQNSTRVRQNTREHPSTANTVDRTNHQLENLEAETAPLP
attribute-measured: Ki (µM)

{"columns": ["compound", "attribute-measured", "reported-relation", "endpoint-result"],
 "data": [
  ["C[C@@H]1c2ccccc2CN(C(=O)[C@@H](N)Cc2ccc(O)cc2)C1C(=O)N[C@@H](Cc1ccccc1)C(=O)N[C@@H](Cc1ccccc1)C(=O)O (single isomer, unassigned; 15)", "Ki", ">", 10],
  ["C[C@@H](c1ccccc1)[C@H](NC(=O)[C@@H]1Cc2ccccc2CN1C(=O)[C@@H](N)Cc1ccc(O)cc1)C(=O)N[C@@H](Cc1ccccc1)C(N)=O", "Ki", "=", 0.973],
  ["C[C@@H]1c2ccccc2CN(C(=O)[C@@H](N)Cc2ccc(O)cc2)C1C(=O)N[C@@H](Cc1ccccc1)C(=O)N[C@@H](Cc1ccccc1)C(=O)O (single isomer, unassigned; 16)", "Ki", ">", 10],
  ["C[C@H](c1ccccc1)C(NC(=O)[C@H](Cc1ccccc1)NC(=O)[C@@H]1Cc2ccccc2CN1C(=O)[C@@H](N)Cc1ccc(O)cc1)C(N)=O (single isomer, unassigned)", "Ki", "=", 2.02],
  ["C[C@H](c1ccccc1)[C@H](NC(=O)[C@@H]1Cc2ccccc2CN1C(=O)[C@@H](N)Cc1ccc(O)cc1)C(=O)N[C@@H](Cc1ccccc1)C(N)=O", "Ki", "=", 0.149],
  ["C[C@H](c1ccc(O)cc1)[C@@H](N)C(=O)N1Cc2ccccc2C[C@H]1C(=O)N[C@@H](Cc1ccccc1)C(=O)N[C@@H](Cc1ccccc1)C(N)=O", "Ki", "=", 1.6]
]}

---

# Species on record: Mus musculus
# run-description: Inhibition of electrically evoked contractions of MVD in MVD assay, the opioid effect was primarily mediated by delta-receptor
# Type: functional, organism-based
pIC50: −log10 of the molar value.

{"columns": ["molecule", "pIC50"],
 "data": [
  ["NC(=O)[C@H](Cc1ccccc1)NC(=O)[C@H](Cc1ccccc1)NC(=O)C1Cc2ccccc2CN1C(=O)[C@@H](N)Cc1ccc(O)cc1 (single isomer, unassigned)", 6.34]
]}

---

A set of molecules tested on Mu-type opioid receptor (Rattus norvegicus, UniProt P33535), with measured Ki:

{"columns": ["molecule", "subject-of-test", "units", "reported-relation", "Ki"],
 "data": [
  ["C[C@@H](c1ccc(O)cc1)C(N)C(=O)N1Cc2ccccc2C[C@H]1C(=O)N[C@@H](Cc1ccccc1)C(=O)N[C@@H](Cc1ccccc1)C(N)=O (single isomer, unassigned)", "Mu-type opioid receptor (Rattus norvegicus, UniProt P33535)", "nM", ">", 10000],
  ["N[C@@H](Cc1ccc(O)cc1)C(=O)N1Cc2ccccc2C[C@H]1C(=O)NC(Cc1ccccc1)C(=O)N[C@@H](Cc1ccccc1)C(=O)O (single isomer, unassigned)", "Mu-type opioid receptor (Rattus norvegicus, UniProt P33535)", "nM", "=", 4000],
  ["C[C@H](c1ccccc1)[C@@H](NC(=O)[C@H](Cc1ccccc1)NC(=O)[C@@H]1Cc2ccccc2CN1C(=O)[C@@H](N)Cc1ccc(O)cc1)C(N)=O", "Mu-type opioid receptor (Rattus norvegicus, UniProt P33535)", "nM", "=", 498],
  ["CC1c2ccccc2CN(C(=O)C(N)Cc2ccc(O)cc2)[C@@H]1C(=O)N[C@@H](Cc1ccccc1)C(=O)N[C@@H](Cc1ccccc1)C(=O)O (single isomer, unassigned)", "Mu-type opioid receptor (Rattus norvegicus, UniProt P33535)", "nM", ">", 10000],
  ["C[C@@H](c1ccccc1)[C@H](NC(=O)[C@H](Cc1ccccc1)NC(=O)[C@@H]1Cc2ccccc2CN1C(=O)[C@@H](N)Cc1ccc(O)cc1)C(N)=O", "Mu-type opioid receptor (Rattus norvegicus, UniProt P33535)", "nM", "=", 47]
]}
